- Test system: Enterobacter cloacae
- assay.explanation: In vitro antibacterial activity against E. cloacae(GC 2209) following preincubation in mouse serum
- Type: functional
readout.name: MIC (µg/mL)

molecule	readout.name	unit.tag	numeric.value
CCOC(=O)OCOC(=O)C1=C(S[C@@H]2CCO[C@@H]2CNC(=O)OC(C)OC(C)=O)[C@H](C)C2[C@@H]([C@@H](C)O)C(=O)N12 (stereo partly drawn)	MIC	µg/mL	0.12
CCOC(=O)OCOC(=O)C1=C(S[C@@H]2CCO[C@@H]2CNC(=O)OC(C)OC(=O)C(C)(C)C)[C@H](C)C2[C@@H]([C@@H](C)O)C(=O)N12 (stereo partly drawn)	MIC	µg/mL	0.12
CCOC(=O)OCOC(=O)C1=C(S[C@@H]2CCO[C@@H]2CNC(=O)OCOC(=O)C(C)C)[C@H](C)C2[C@@H]([C@@H](C)O)C(=O)N12 (stereo partly drawn)	MIC	µg/mL	0.12
